target: CCR2 (Homo sapiens); construct: Membranes were prepared from THP-1 cells; endogenous in cells; host or cells: THP-1 cells (membrane preparation); experiment: CCR2 receptor membrane binding assay ([125I]MCP-1, THP-1 cell membranes, SPA beads); conditions: @ 10 μM test compound; THP-1 membranes; read-out: CCR2 % ctrl @ 10 μM
Sequence (P41597 1-360 isoform P41597-2): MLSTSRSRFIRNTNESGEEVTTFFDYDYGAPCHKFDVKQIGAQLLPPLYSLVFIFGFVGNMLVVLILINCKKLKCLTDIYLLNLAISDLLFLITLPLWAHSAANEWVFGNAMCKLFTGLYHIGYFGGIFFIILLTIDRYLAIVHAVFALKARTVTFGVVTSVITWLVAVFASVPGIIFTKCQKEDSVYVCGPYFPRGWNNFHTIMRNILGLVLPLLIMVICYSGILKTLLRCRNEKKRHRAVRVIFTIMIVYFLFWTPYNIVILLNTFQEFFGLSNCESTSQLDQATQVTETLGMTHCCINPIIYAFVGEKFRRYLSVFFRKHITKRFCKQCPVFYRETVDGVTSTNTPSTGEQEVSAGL
assay readout: remaining activity at 10 µM (%)

// known answers, use as guide
{"molecule": "Cc1c(NCCc2cccc(C(F)(F)F)c2)ncnc1C(=O)N1CCC(N2CCC(O)CC2)CC1 [Example 11]", "assay readout": "remaining activity at 10 µM", "result units": "%", "meas value": 38}
{"molecule": "Cc1nc(NCC2CCN(c3ccccc3)C2)c(C)c(C(=O)N2CCC(N3CCC(N(C)S(C)(=O)=O)CC3)CC2)n1 (stereo not shown) [Example 84]", "assay readout": "remaining activity at 10 µM", "result units": "%", "meas value": 4}
{"molecule": "Cc1c(NCc2ccc(Cl)c(Cl)c2)ncnc1C(=O)N1CCC(N(C)CC2(C)COC2)CC1 [Example 180]", "assay readout": "remaining activity at 10 µM", "result units": "%", "meas value": 60}
{"molecule": "Cc1nc(NCc2ccc(C(F)(F)F)c(Cl)c2)c(C)c(C(=O)N2CCC(N3CCC(N(C)S(C)(=O)=O)CC3)CC2)n1 [Example 81]", "assay readout": "remaining activity at 10 µM", "result units": "%", "meas value": 8}

(1) Cc1c(NCc2cccc(-c3ccccc3)c2)cccc1C(=O)N1CCC(N2CCC(O)CC2)CC1 [Example 283]
(2) Cc1c(NCc2ccc(C(C)(C)C)cc2)ncnc1C(=O)N1CCC(NC2CCOc3ccccc32)CC1 (stereo not shown) [Example 228f]
(3) Cc1c(CCc2ccc(C(C)(C)C)cc2)ncnc1C(=O)N1CCC(N2CCC(N(C)S(C)(=O)=O)CC2)CC1 [Example 272]
Order the 3 molecules from highest to lowest remaining activity at 10 µM. Record the ranking as a list of labels in the requested order.
1, 3, 2
